- Tested on: CDK9-CYCLIN T1 (Homo sapiens, UniProt P50750)
- Sequence (P50750 whole entry): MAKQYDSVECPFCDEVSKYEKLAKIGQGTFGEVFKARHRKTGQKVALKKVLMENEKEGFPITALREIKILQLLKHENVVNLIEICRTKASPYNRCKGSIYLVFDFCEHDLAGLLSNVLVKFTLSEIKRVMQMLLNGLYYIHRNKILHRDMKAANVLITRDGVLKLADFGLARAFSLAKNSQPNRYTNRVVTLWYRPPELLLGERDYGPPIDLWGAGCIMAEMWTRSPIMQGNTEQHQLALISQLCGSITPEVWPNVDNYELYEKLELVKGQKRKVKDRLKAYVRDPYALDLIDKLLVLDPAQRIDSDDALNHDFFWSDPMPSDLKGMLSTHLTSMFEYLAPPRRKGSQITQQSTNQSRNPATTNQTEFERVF
- Sequence (O60563 whole entry partner): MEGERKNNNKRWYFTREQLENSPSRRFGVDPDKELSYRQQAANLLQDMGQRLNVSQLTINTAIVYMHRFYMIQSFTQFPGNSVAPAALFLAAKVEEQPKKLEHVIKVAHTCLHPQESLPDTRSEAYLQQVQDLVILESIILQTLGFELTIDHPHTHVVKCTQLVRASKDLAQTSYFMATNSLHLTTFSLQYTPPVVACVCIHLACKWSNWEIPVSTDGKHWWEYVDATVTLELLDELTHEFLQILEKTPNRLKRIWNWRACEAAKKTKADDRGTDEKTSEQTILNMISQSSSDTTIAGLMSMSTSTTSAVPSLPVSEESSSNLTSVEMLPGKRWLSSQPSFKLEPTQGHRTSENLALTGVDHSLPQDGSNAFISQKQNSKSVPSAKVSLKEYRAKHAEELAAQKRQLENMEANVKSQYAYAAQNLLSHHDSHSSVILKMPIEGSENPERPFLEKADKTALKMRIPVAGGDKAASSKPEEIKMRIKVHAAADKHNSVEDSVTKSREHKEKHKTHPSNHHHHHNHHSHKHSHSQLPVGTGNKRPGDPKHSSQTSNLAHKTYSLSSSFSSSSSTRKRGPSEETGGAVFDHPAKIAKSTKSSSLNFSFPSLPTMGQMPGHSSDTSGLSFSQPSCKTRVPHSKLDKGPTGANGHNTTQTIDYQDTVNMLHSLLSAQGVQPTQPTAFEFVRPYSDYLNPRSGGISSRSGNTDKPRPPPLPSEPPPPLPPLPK
- Procedure details: CDK protein kinase inhibition by ADP-Glo assay, CDK9-CYCLIN T1
- Format: biochemical
- Cond: ADP-Glo, 1000 μM ATP; Table 23; read-out: CDK9-CYCLINT1, IC50
Assay metric: IC50

Ask: So what does the record say about IC50 for `C[C@@H]1Oc2cncc(c2)Nc2cc(n[nH]2)[C@H]2CC[C@H](C2)OC(=O)N[C@H]2C[C@@H]1C2` ?
Reply: > 500 nM

Ask: So what does the record say about IC50 for `C[C@H]1CCO[C@H](C)c2cc(ccn2)Nc2cc(n[nH]2)[C@H]2CC[C@H](C2)OC(=O)N1` ?
Reply: > 500 nM

Ask: So what does the record say about IC50 for `C[C@@H]1CC[C@H](C)Oc2cc(ccn2)Nc2cc(n[nH]2)[C@H]2CC[C@H](C2)OC(=O)N1` ?
Reply: 100 to 500 nM

Ask: So what does the record say about IC50 for `C[C@@H]1OCC[C@H](C)NC(=O)O[C@@H]2CC[C@@H](C2)c2cc([nH]n2)Nc2ccnc1c2` ?
Reply: 50 to 100 nM

---

- Tested on: CDK4-CYCLIN D1 (Homo sapiens, UniProt P11802)
- Sequence (P11802 whole entry): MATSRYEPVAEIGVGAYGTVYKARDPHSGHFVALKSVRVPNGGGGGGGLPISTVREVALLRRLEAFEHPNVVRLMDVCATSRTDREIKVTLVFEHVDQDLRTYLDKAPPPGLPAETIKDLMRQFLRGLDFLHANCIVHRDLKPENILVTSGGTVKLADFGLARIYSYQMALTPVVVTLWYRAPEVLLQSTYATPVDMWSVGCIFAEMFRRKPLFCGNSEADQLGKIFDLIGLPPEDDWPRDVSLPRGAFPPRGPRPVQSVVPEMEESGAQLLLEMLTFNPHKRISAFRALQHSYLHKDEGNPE
- Sequence (P24385 whole entry partner): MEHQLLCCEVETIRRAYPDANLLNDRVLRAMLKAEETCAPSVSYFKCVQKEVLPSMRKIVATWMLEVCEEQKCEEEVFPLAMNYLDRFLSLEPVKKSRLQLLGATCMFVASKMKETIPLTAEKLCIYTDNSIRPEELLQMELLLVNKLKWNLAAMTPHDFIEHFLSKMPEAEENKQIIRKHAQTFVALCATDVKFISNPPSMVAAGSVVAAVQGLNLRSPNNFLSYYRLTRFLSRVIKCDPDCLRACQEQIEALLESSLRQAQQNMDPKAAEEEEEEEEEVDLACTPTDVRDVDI
- Procedure details: CDK protein kinase inhibition by ADP-Glo assay, CDK4-CYCLIN D1
- Format: biochemical
- Cond: ADP-Glo, 1000 μM ATP; Table 13; read-out: CDK4-CYCLIND1, IC50
pIC50: −log10 of the molar value.
Assay metric: pIC50

Ask: So what does the record say about pIC50 for `C[C@@H]1CCCNC(=O)O[C@@H]2CC[C@@H](C2)c2cc([nH]n2)Nc2cncc(c2)O1` ?
Reply: < 6.30

Ask: So what does the record say about pIC50 for `O=C1NC23CC(CCCc4cc(ccn4)Nc4cc(n[nH]4)[C@H]4CC[C@H](C4)O1)(C2)C3` ?
Reply: 7.00 to 7.30

Ask: So what does the record say about pIC50 for `C[C@H]1CCCOc2cncc(c2)Nc2cc(n[nH]2)[C@H]2CC[C@H](C2)OC(=O)N1` ?
Reply: 6.30 to 7.00

Ask: So what does the record say about pIC50 for `C[C@@H]1CCCOc2cncc(c2)Nc2cc(n[nH]2)[C@H]2CC[C@H](C2)OC(=O)N1` ?
Reply: 7.00 to 7.30

---

- Tested on: CDK1-CYCLIN B (Homo sapiens, UniProt P06493)
- Sequence (P06493 whole entry): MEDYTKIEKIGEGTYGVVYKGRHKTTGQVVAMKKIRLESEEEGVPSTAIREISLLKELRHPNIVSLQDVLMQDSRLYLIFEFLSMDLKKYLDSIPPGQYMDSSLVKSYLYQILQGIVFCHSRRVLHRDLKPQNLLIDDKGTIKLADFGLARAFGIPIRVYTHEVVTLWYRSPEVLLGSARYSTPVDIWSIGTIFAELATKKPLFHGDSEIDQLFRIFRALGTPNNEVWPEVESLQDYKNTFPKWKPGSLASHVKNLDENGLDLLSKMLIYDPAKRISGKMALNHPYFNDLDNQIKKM
- Sequence (P14635 whole entry partner): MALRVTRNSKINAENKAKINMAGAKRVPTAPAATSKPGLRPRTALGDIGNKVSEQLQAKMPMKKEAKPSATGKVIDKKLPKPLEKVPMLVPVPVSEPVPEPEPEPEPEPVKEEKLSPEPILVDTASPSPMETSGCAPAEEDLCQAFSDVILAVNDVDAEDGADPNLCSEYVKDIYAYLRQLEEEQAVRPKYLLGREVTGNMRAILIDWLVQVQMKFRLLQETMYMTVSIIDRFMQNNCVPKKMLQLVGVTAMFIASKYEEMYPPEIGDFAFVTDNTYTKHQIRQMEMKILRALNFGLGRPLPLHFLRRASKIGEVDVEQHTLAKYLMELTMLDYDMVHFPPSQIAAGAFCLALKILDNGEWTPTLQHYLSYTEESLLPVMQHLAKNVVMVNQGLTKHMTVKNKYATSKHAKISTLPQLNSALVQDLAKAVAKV
- Procedure details: CDK protein kinase inhibition by ADP-Glo assay, CDK1-CYCLIN B
- Assay type: biochemical
- Cond: ADP-Glo, 1000 μM ATP; Table 33; read-out: CDK1-CYCLINB, IC50
pIC50: −log10 of the molar value.
Assay metric: pIC50

Ask: So what does the record say about pIC50 for C[C@H]1CCCOc2cc(ccn2)Nc2[nH]nc(c2F)[C@H]2CC[C@H](C2)OC(=O)N1 [Compound 183] ?
Reply: < 6.30

---

- Tested on: CDK6-CYCLIN D3 (Homo sapiens)
- Sequence (Q00534 whole entry): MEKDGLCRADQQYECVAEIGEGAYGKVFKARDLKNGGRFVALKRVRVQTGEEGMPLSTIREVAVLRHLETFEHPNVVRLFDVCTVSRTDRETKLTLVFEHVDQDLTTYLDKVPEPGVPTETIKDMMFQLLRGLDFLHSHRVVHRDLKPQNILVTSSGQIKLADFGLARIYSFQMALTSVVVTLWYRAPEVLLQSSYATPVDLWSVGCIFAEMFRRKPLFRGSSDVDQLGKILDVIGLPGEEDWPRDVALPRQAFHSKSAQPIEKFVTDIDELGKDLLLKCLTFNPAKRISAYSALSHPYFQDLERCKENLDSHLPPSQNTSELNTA
- Sequence (P30281 whole entry partner): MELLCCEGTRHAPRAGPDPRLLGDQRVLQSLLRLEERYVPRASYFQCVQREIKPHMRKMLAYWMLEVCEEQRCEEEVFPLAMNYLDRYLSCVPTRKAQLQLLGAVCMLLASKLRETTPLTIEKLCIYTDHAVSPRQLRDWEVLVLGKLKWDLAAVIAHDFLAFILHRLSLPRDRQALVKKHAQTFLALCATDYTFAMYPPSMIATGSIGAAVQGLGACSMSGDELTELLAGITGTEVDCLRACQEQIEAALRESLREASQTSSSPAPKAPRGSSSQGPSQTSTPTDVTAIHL
- Procedure details: CDK protein kinase inhibition by ADP-Glo assay, CDK6-CYCLIN D3
- Type: biochemical
- Cond: CDK2 versus CDK6; Table 14
Assay metric: CDK2 Fold selectivity, CDK6

{"Molecule": "O=C1NC23CC(CCCc4cc(ccn4)Nc4cc(n[nH]4)[C@H]4CC[C@H](C4)O1)(C2)C3 [Compound 96]", "Reported measurement": "E (E, <20)"}
{"Molecule": "C[C@H]1CCCOc2cncc(c2)Nc2cc(n[nH]2)[C@H]2CC[C@H](C2)OC(=O)N1 [Compound 119]", "Reported measurement": "E (E, <20)"}
{"Molecule": "C[C@@H]1CCCOc2cncc(c2)Nc2cc(n[nH]2)[C@H]2CC[C@H](C2)OC(=O)N1 [Compound 120]", "Reported measurement": "E (E, <20)"}

---

- Tested on: CDK6-CYCLIN D3 (Homo sapiens)
- Procedure details: CDK protein kinase inhibition by ADP-Glo assay, CDK6-CYCLIN D3
- Assay type: biochemical
- Cond: Table 35; recombinant CDK kinase; read-out: CDK6-CYCLIND3, IC50
pIC50: −log10 of the molar value.
Assay metric: pIC50

Ask: So what does the record say about pIC50 for `C[C@H]1CCCOc2cc(ccn2)Nc2cc(n[nH]2)[C@@H]2C[C@H](F)[C@@H](C2)OC(=O)N1` ?
Reply: 7.30 to 8.00

Ask: So what does the record say about pIC50 for `[2H]C1([2H])Oc2cc(ccn2)Nc2[nH]nc(c2F)[C@H]2CC[C@H](C2)OC(=O)N[C@H]2C[C@H]1C2` ?
Reply: 6.30 to 7.00

Ask: So what does the record say about pIC50 for `C[C@H]1CCCOc2cc(ccn2)Nc2cc(n[nH]2)[C@H]2C[C@@H](F)[C@H](C2)OC(=O)N1` ?
Reply: 6.30 to 7.00

Ask: So what does the record say about pIC50 for `[2H]C1([2H])Oc2cc(ccn2)Nc2cc(n[nH]2)[C@H]2CC[C@H](C2)OC(=O)N[C@H]2C[C@H]1C2` ?
Reply: 7.30 to 8.00

Ask: So what does the record say about pIC50 for `C[C@H]1CC(F)(F)COc2cc(ccn2)Nc2cc(n[nH]2)[C@H]2CC[C@H](C2)OC(=O)N1` ?
Reply: 6.30 to 7.00

Ask: So what does the record say about pIC50 for `O=C1N[C@H]2C[C@H](COc3cc(ccn3)Nc3cc(n[nH]3)[C@H]3CC[C@H](C3)O1)C2` ?
Reply: 7.00 to 7.30

---

- Tested on: CDK4-CYCLIN D1 (Homo sapiens, UniProt P11802)
- Procedure details: CDK protein kinase inhibition by ADP-Glo assay, CDK4-CYCLIN D1
- Assay type: biochemical
- Cond: CDK2 versus CDK4; Table 14

{"Item smiles": "C[C@H]1CCCOc2cncc(c2)Nc2cc(n[nH]2)[C@H]2CC[C@H](C2)OC(=O)N1", "Tested on": "CDK4-CYCLIN D1 (Homo sapiens, UniProt P11802)", "CDK2 Fold selectivity, CDK4": "C (C, >50 and ≤100)"}
{"Item smiles": "C[C@@H]1CCCOc2cncc(c2)Nc2cc(n[nH]2)[C@H]2CC[C@H](C2)OC(=O)N1", "Tested on": "CDK4-CYCLIN D1 (Homo sapiens, UniProt P11802)", "CDK2 Fold selectivity, CDK4": "C (C, >50 and ≤100)"}

---

- Tested on: Phospho-Rb (Ser807/811) in OVCAR3 cells
- Procedure details: Phospho-Rb expression inhibition in OVCAR3 cells quantified by In Cell Western
- Type: cell-based
- Cond: Homo sapiens, OVCAR-3, 24 hours, read-out: OVCAR-3 pRb IC50
pIC50: −log10 of the molar value.
Record form. Attribute: pIC50. Fill in for each entry.

Ask: API: value(readout=pIC50, system=Phospho-Rb (Ser807/811) in OVCAR3 cells) for record `C[C@H]1Oc2cncc(c2)Nc2cc(n[nH]2)[C@H]2CC[C@H](C2)OC(=O)N[C@H]2C[C@@H]1C2`
Reply: 6.60 to 7.30

Ask: API: value(readout=pIC50, system=Phospho-Rb (Ser807/811) in OVCAR3 cells) for record `C[C@H]1Oc2cc(ccn2)Nc2cc(n[nH]2)[C@H]2CC[C@H](C2)OC(=O)N[C@H]2C[C@@H]1C2`
Reply: 6.60 to 7.30

Ask: API: value(readout=pIC50, system=Phospho-Rb (Ser807/811) in OVCAR3 cells) for record `C[C@H]1CCCOc2cc(ccn2)Nc2cc(n[nH]2)[C@H]2C[C@@H](F)[C@H](C2)OC(=O)N1`
Reply: 8.00 to 8.70

Ask: API: value(readout=pIC50, system=Phospho-Rb (Ser807/811) in OVCAR3 cells) for record `C[C@@H]1NC(=O)O[C@@H]2CC[C@@H](C2)c2n[nH]c(c2F)Nc2ccnc(c2)OCCC1(F)F`
Reply: 7.30 to 8.00

Ask: API: value(readout=pIC50, system=Phospho-Rb (Ser807/811) in OVCAR3 cells) for record `CC1(C)CCCOc2cc(ccn2)Nc2cc([nH]n2)[C@H]2CC[C@H](C2)OC(=O)N1`
Reply: 8.00 to 8.70

Ask: API: value(readout=pIC50, system=Phospho-Rb (Ser807/811) in OVCAR3 cells) for record `O=C1NC2CC(COc3cc(ccn3)Nc3[nH]nc(c3F)C3C[C@H](F)[C@@H](C3)O1)C2`
Reply: 7.30 to 8.00

Ask: API: value(readout=pIC50, system=Phospho-Rb (Ser807/811) in OVCAR3 cells) for record `C[C@H]1Oc2cncc(c2)Nc2cc(n[nH]2)[C@H]2CC[C@H](C2)OC(=O)N[C@H]2C[C@H]1C2`
Reply: ≥ 8.70

Ask: API: value(readout=pIC50, system=Phospho-Rb (Ser807/811) in OVCAR3 cells) for record `C[C@H]1CCCOc2ncc(F)c(c2F)Nc2cc(n[nH]2)[C@H]2CC[C@H](C2)OC(=O)N1`
Reply: < 6.60

Ask: API: value(readout=pIC50, system=Phospho-Rb (Ser807/811) in OVCAR3 cells) for record `C[C@H]1CCCOc2cc(ccn2)Nc2[nH]nc(c2F)C2C[C@H](F)[C@@H](C2)OC(=O)N1`
Reply: 7.30 to 8.00

Ask: API: value(readout=pIC50, system=Phospho-Rb (Ser807/811) in OVCAR3 cells) for record `C[C@@H]1CC23CC(C2)(C3)NC(=O)O[C@@H]2CC[C@@H](C2)c2cc([nH]n2)Nc2ccnc(c2)O1`
Reply: 8.00 to 8.70

Ask: API: value(readout=pIC50, system=Phospho-Rb (Ser807/811) in OVCAR3 cells) for record `O=C1N[C@H]2C[C@H](COc3cc(ccn3)Nc3cc(n[nH]3)[C@H]3CC[C@H](C3)O1)C2`
Reply: 8.00 to 8.70

Ask: API: value(readout=pIC50, system=Phospho-Rb (Ser807/811) in OVCAR3 cells) for record O=C1N[C@H]2C[C@@H](CC(F)(F)c3cc(ccn3)Nc3cc(n[nH]3)[C@H]3CC[C@H](C3)O1)C2 (single isomer, unassigned)
Reply: 8.00 to 8.70

Ask: API: value(readout=pIC50, system=Phospho-Rb (Ser807/811) in OVCAR3 cells) for record `O=C1NC23CC(CCc4cc(cc(C(F)F)n4)Nc4cc([nH]n4)[C@H]4CC[C@H](C4)O1)(C2)C3`
Reply: 7.30 to 8.00

Ask: API: value(readout=pIC50, system=Phospho-Rb (Ser807/811) in OVCAR3 cells) for record `C[C@H]1CCCOc2cncc(n2)Nc2[nH]nc(c2F)C2C[C@@H](F)[C@H](C2)OC(=O)N1`
Reply: ≥ 8.70
